system.tested: Lysine-specific demethylase 4A (Homo sapiens) (UniProt O75164)
Sequence (O75164 whole entry, looked up, the tested form may be a part): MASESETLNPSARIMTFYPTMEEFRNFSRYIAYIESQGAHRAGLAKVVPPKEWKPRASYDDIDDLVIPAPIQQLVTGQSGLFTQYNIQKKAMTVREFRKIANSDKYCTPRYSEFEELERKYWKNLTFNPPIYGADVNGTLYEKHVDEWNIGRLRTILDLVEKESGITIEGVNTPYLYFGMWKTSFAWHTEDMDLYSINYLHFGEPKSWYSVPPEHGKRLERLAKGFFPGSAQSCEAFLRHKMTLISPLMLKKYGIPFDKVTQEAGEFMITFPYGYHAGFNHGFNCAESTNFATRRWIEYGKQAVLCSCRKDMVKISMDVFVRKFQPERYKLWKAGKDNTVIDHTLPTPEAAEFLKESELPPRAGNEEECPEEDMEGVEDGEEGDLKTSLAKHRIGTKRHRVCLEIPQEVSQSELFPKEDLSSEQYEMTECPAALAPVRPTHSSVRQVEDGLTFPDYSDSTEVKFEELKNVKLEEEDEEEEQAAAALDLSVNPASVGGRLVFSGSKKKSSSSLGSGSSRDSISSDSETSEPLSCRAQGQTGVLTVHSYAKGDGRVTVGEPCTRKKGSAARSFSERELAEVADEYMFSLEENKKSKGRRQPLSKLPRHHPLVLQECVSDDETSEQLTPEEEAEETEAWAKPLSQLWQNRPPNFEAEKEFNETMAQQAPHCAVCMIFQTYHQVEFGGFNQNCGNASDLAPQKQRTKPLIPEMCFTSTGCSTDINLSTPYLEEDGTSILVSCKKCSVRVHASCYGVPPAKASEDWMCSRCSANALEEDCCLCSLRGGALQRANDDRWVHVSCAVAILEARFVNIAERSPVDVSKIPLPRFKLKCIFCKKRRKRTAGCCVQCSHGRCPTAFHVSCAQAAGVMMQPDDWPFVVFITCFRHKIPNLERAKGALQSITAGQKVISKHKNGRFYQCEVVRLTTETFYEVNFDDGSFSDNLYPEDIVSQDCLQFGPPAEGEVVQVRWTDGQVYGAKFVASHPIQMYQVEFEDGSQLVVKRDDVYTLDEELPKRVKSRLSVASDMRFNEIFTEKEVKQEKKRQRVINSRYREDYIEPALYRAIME
method: qHTS Assay for Inhibitors of JMJD2A-Tudor Domain; further: nearly all actives have a fitted effect of over 50% in size
conditions.used: AlphaScreen JMJD2A-Tudor / H3K4me3 peptide binding; series mostly up to 114 µM
Among all 390,000 compounds or so, about 17,000 (4.4%) were called active. About 8% were inconclusive and are not listed. The call rests on the fitted dose curve; in most records, active means well fitted inhibition curve with a large enough effect; inconclusive means small, poorly fitted or top-dose-only effect; inactive means no such curve, though single readings can be large or run the other way. Shown is part of a subset that was picked to be rich in actives.
Labels: True = active, False = inactive

1) O=C(c1ccc(CSc2ccccc2)cc1)N1CCCCCC1 ... False
2) O=C(Nc1ccc(-n2ccnc2P(=O)(O)c2ccccc2)cc1)c1ccccc1Br ... True
3) S=c1[nH]ccn1-c1ccc(Cl)cc1 ... True
4) COc1cc(/C=C/C(=O)OCC(=O)N2CCOCC2)ccc1OCC#N ... True
5) COc1cccc(N2CCN(c3ccc4nnc(CCC(=O)N5CCN(C)CC5)n4n3)CC2)c1 ... False
6) Cc1nnc(SCc2cc(=O)c3cc(F)ccc3[nH]2)n1C ... False
7) COc1cc(/C=C/C(=O)OCC(=O)NC(=O)NCc2ccccc2)ccc1OCC#N ... False
8) COc1ccc(NC(=O)CN2CCCN(Cc3ccccc3)S2(=O)=O)cc1 ... False
9) CCOC(=O)c1c(C)oc2nc(C)nc(N(CC(C)C)CC(C)C)c12 ... False
10) Cc1ccc(S(=O)(=O)N2CCN(C(=O)N3CCOCC3)CC2)c(C)c1 ... False
11) COc1ccc(N2C(=O)CS(=O)(=O)C23C(=O)N(Cc2ccc(C)cc2)c2ccccc23)cc1Cl (configuration not stated) ... False
12) COc1ccccc1NC(=O)C(=O)c1cc(C)n(-c2ccccc2F)c1C ... False
13) COc1cc(/C=C/C(=O)Nc2ccc(OC)c(S(=O)(=O)N3CCOCC3)c2)ccc1OCC#N ... False
14) CCc1nn(CCCC(=O)NCc2ccccc2OC)c(=O)c2cc3occc3n12 ... False
15) O=C(c1ccc(S(=O)(=O)N2CCCC2)cc1)N1CCN(c2ccccc2F)CC1 ... False
16) CC(=O)c1ccc(NS(=O)(=O)c2ccc(-c3cc(C)no3)s2)cc1 ... False
17) Cc1nc2c(c(C)nn2-c2ccccc2)c(C)c1CCC(=O)NCCc1ccc(Cl)cc1 ... False
18) COc1ccc(-c2cc(C(=O)NCc3cc(OC)c(OC)c(OC)c3)[nH]n2)cc1 ... False
19) CC(C)Sc1nc(N)nc2c1ncn2C1OC(CO)C(O)C1O (configuration not stated) ... False
20) CCCCn1cc(S(=O)(=O)c2ccc(OCC)cc2)c(=O)c2cc(OC)c(OC)cc21 ... False
21) C/C(=N\N(C)C)c1ccc(OCCOc2ccc([N+](=O)[O-])cc2)cc1 ... True
22) Fc1ccc(CN2CCc3nc(Nc4ccccc4)ncc3C2)cc1F ... False
23) COC1C(CO)OC(n2cnc3c(=S)nc(N)[nH]c32)C1O (configuration not stated) ... True
24) Cc1ccc(F)cc1NC(=O)CCSc1nc(-c2ccco2)cc(C(F)(F)F)n1 ... False
25) Cn1nc(-c2ccccc2)c(-c2ccccc2)c(C(=O)Nc2ccc(S(N)(=O)=O)cc2)c1=O ... False
26) CO/N=C(\N)c1ccc([N+](=O)[O-])cc1 ... False
27) CCOc1ccc(CNC(=O)C2CCN(c3nnc(-n4cccc4CNc4ccc(C)cc4)s3)CC2)cc1OC ... False
28) COc1cccc(C(=O)NCc2ccc3c(c2)CCN3C(=O)c2ccncc2)c1 ... False
29) COc1ccc(CCn2c3c(c(=O)[nH]c2=S)CN(C(C)C)CN3)cc1OC ... False
30) O=S(=O)(NCCS(=O)(=O)N1CCN(c2ccccc2)CC1)c1ccc(Cl)cc1 ... False
31) CCOC(=O)c1c(C)[nH]c(CCC(=O)Nc2ccc(OC)c(OC)c2)c1C ... False
32) CCOC(=O)N1CCc2c(sc3c2c(=O)n(-c2ccc(CC)cc2)c(=O)n3C)C1 ... False
33) N#Cc1ccccc1-n1c(N)c(C(=O)N2CCCC2)sc1=S ... True
34) Cn1c(=O)c(=O)n(C)c2cc(NC(=O)c3ccccc3Br)ccc21 ... False
35) Cc1cccc(-n2c(N)c(C(=O)N3CCN(C)CC3)sc2=S)c1 ... True
36) CCOc1ccc(OCC)c(NC(=O)c2cc(C)nc3c2c(C)nn3-c2cccc(Cl)c2C)c1 ... False
37) Cc1ccc(N2CCN(C(=O)c3cccs3)CC2)c(C)c1 ... False
38) Cc1cccc(N2CCN(C(=O)Cn3ncc4c5ccccc5n(C)c4c3=O)CC2C)c1 (configuration not stated) ... False
39) COc1ccc(C2Nc3cccc(OC)c3C(=O)N2Cc2ccccc2)cc1COc1ccc(NC(C)=O)cc1 (configuration not stated) ... True
40) Cc1ccc(-n2c(N)c(C(=O)N3CCOCC3)sc2=S)c(C)c1 ... True
41) CCOC(=O)c1c(S(=O)(=O)N2CCCC(C(=O)NCc3ccc(F)cc3)C2)c(C)n(CC)c1C (configuration not stated) ... False
42) Cc1cccc(C(=O)N2CCN(S(=O)(=O)N3CCCCC3)CC2)c1 ... False
